Entry source: ChEMBL document CHEMBL1821667

- protocol description: Ratio of AUC in brain to plasma
- Type: ADME, cell-free
- test context: brain and plasma; read-out: Ratio AUC
quantity measured: Kp

CCC(=O)c1cc(C2(c3cccc(-c4cccnc4F)c3)N=C(N)N(C)C2=O)cs1 (racemic) :: 0.1
Cc1cc(C2(c3cccc(-c4cncnc4)c3)N=C(N)N(C)C2=O)c(Cl)s1 (racemic) :: 0.1
COc1cncc(-c2cccc(C3(c4ccsc4)N=C(N)N(C)C3=O)c2)c1 (racemic) :: 0.1

----------
Target sequence: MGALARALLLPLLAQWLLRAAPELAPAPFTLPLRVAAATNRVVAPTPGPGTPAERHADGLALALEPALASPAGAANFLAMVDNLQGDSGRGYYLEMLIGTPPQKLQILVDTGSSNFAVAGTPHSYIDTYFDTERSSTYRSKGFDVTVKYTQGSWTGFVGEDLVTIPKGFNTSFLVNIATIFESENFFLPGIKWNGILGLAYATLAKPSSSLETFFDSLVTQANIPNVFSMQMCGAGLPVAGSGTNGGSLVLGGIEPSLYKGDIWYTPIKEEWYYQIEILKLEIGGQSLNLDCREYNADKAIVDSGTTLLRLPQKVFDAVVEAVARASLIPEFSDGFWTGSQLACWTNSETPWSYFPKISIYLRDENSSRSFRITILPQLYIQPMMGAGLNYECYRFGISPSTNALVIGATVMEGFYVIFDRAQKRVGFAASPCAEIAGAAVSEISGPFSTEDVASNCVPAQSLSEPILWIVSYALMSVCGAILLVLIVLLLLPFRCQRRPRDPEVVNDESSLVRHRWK
pIC50: −log10 of the molar value.
quantity measured: pIC50

For orientation, consider the following solved cases.
CC(C)CCn1cc(C2(c3cccc(-c4cncnc4)c3)N=C(N)N(C)C2=O)cn1 (racemic) :: 7.70
CCn1cc(C2(c3ccc(F)c(-c4cccnc4F)c3)N=C(N)N(C)C2=O)cn1 (racemic) :: 6.06

1: CC(C)n1cc(C2(c3ccc(F)c(-c4cccnc4F)c3)N=C(N)N(C)C2=O)cn1 (racemic)
2: CN1C(=O)C(c2ccsc2)(c2ccc(F)c(-c3cccnc3F)c2)N=C1N (racemic)
3: CN1C(=O)C(c2cccc(-c3cncnc3)c2)(c2cnn(CCC(C)(C)C)c2)N=C1N (racemic)
Lookup: Order by pIC50, ascending. Labels, requested order.
Found: 1, 2, 3

A: CN1C(=O)C(c2ccsc2)(c2ccc(F)c(-c3cccnc3)c2)N=C1N (racemic)
B: CCCCn1cc(C2(c3cccc(-c4cccnc4F)c3)N=C(N)N(C)C2=O)cn1 (racemic)
C: CN1C(=O)C(c2ccsc2)(c2cccc(-c3cnccn3)c2)N=C1N (racemic)
Lookup: List from greatest to least pIC50. Labels, requested order.
Found: B, C, A
(B: 7.30, C: 6.36, A: 6.13)

A: CCC(=O)c1cc([C@]2(c3cccc(-c4cccnc4F)c3)N=C(N)N(C)C2=O)cs1
B: CCC(=O)c1cc([C@@]2(c3cccc(-c4cccnc4F)c3)N=C(N)N(C)C2=O)cs1
Lookup: Lowest pIC50? choose A or B State the label of the item chosen.
Found: B
(B: 5.26, A: 7.30)

I: CCn1cc(C2(c3cccc(-c4cncnc4)c3)N=C(N)N(C)C2=O)cn1 (racemic)
II: CN1C(=O)C(c2cccc(-c3cncnc3)c2)(c2cnn(C)c2)N=C1N (racemic)
III: CCn1cc([C@]2(c3cccc(-c4cccnc4F)c3)N=C(N)N(C)C2=O)cn1
Lookup: Order by pIC50, ascending. Labels, requested order.
Found: I, II, III
